Data credit: ChEMBL document CHEMBL4257537

Test system: Mycobacterium tuberculosis
PROCEDURE TEXT: Antitubercular activity against Mycobacterium tuberculosis H37Ra after 5 days by luminescence assay
Format: functional
PROTOCOL CONDITIONS: 120 h
QUANTITY: MIC

compound=O=C(Nc1cc(O)cc(Cc2ccccc2)c1)N1CCOCC1 quantity=MIC assay_value="12.5 µg/mL"
compound="O=C(Nc1cc(O)cc(C(O)c2ccccc2)c1)c1ccccc1 (stereo unspecified)" quantity=MIC assay_value="> 50 µg/mL"
compound=O=C(Nc1cc(O)cc(Cc2ccccc2)c1)c1cccnc1Cl quantity=MIC assay_value="5 µg/mL"
compound=CC(C)C(=O)Nc1cc(O)cc(Cc2ccccc2)c1 quantity=MIC assay_value="5 µg/mL"
compound=O=C(Nc1cccc(O)c1)c1ccccc1 quantity=MIC assay_value="> 50 µg/mL"
compound=O=C(Nc1cc(O)cc(Cc2ccccc2)c1)c1ccc(Cl)cc1Cl quantity=MIC assay_value="5 µg/mL"

----------
Parameter: selectivity ratio. Scope: all listed entries.
PROCEDURE TEXT: Selectivity index, ratio of IC50 for mouse RAW264.7 cells to MIC for Mycobacterium tuberculosis H37Ra
Assay type: toxicity
PROTOCOL CONDITIONS: read-out: Selectivity Index
QUANTITY: selectivity ratio

structure_string=O=C(Nc1cc(O)cc(Cc2ccccc2)c1)c1ccccc1 assay_value="> 20"
structure_string=O=C(Nc1cc(O)cc(Cc2ccccc2)c1)C1CCCCC1 assay_value="> 160"

----------
PROCEDURE TEXT: Selectivity index, ratio of IC50 for human HepG2 cells to MIC for Mycobacterium tuberculosis H37Ra
Format: toxicity
PROTOCOL CONDITIONS: read-out: Selectivity Index
QUANTITY: selectivity ratio

structure_string=O=C(Nc1cc(O)cc(Cc2ccccc2)c1)c1ccccc1 assay_value="> 20"
structure_string=O=C(Nc1cc(O)cc(Cc2ccccc2)c1)C1CCCCC1 assay_value="> 80"

----------
System: Mycobacterium tuberculosis
PROCEDURE TEXT: Antitubercular activity against Mycobacterium tuberculosis H37Ra after 5 days by luminescence assay
Type: functional
PROTOCOL CONDITIONS: 120 h
QUANTITY: MIC

compound=O=C(Nc1cc(O)cc(Cc2ccccc2)c1)C12CC3CC(CC(C3)C1)C2 assay_value="> 50 mg/L"
compound=COc1cc(Cc2ccccc2)cc(NC(=O)c2ccccc2)c1 assay_value="> 50 mg/L"
compound=O=C(Nc1cc(O)cc(Cc2ccccc2)c1)c1cc(C(F)(F)F)cc(C(F)(F)F)c1 assay_value="> 25 mg/L"
compound="CC(C)(C)C1CCC(C(=O)Nc2cc(O)cc(Cc3ccccc3)c2)CC1 (stereo not given)" assay_value="> 50 mg/L"
compound=O=C(Nc1cc(O)cc(Cc2ccccc2)c1)c1ccc([N+](=O)[O-])cc1 assay_value="> 50 mg/L"

----------
Tested on: Mycobacterium tuberculosis
PROCEDURE TEXT: Antitubercular activity against Mycobacterium tuberculosis H37Ra after 5 days by luminescence assay
Type: functional
PROTOCOL CONDITIONS: 120 h
QUANTITY: MIC (µg/mL)

structure_string=Cc1ccc(C)c(Cc2cc(O)cc(NC(=O)C3CCCCC3)c2)c1 rel=> assay_value=50
structure_string=O=C(O)c1cc(Cc2ccccc2)cc(NC(=O)c2ccccc2)c1 rel=> assay_value=50
structure_string=CC(=O)Nc1cc(O)cc(Cc2ccccc2)c1 rel=> assay_value=100
structure_string=O=C(Nc1cc(O)cc(Cc2ccccc2)c1)c1ccc(C2CCCCC2)cc1 rel=> assay_value=50
structure_string=CCCCCc1cc(O)cc(NC(=O)C2CCCCC2)c1 rel=> assay_value=50
structure_string=CC(C)CCc1cc(O)cc(NC(=O)C2CCCCC2)c1 rel=> assay_value=50
structure_string=O=C(Nc1cc(O)cc(Cc2ccccc2)c1)C(F)(F)F rel=> assay_value=50
structure_string=O=C(Nc1cc(O)cc(Cc2ccccc2)c1)c1cccc(Cl)c1 rel== assay_value=2.5
structure_string=CCCc1cc(O)cc(NC(=O)C2CCCCC2)c1 rel=> assay_value=50
structure_string=O=C(Nc1cc(O)cc(Cc2ccccc2)c1)c1ccc(Cl)cc1 rel== assay_value=2.5
structure_string=O=C(Nc1cc(O)cc(Cc2ccccc2)c1)C1CCOCC1 rel== assay_value=6.25
structure_string=Oc1cccc(Cc2ccccc2)c1 rel=> assay_value=50
structure_string=O=C(Nc1cc(O)cc(Cc2ccccc2)c1)c1ccccc1Cl rel== assay_value=2.5
structure_string=CC(C)(C)c1ccc(C(=O)Nc2cc(O)cc(Cc3ccccc3)c2)cc1 rel== assay_value=2.5
structure_string=O=C(Nc1cc(O)cc(Cc2ccccc2)c1)c1ccc(OC(F)(F)F)cc1 rel== assay_value=10
